target: Cannabinoid receptor 2 (Homo sapiens)
Sequence (P34972 whole entry): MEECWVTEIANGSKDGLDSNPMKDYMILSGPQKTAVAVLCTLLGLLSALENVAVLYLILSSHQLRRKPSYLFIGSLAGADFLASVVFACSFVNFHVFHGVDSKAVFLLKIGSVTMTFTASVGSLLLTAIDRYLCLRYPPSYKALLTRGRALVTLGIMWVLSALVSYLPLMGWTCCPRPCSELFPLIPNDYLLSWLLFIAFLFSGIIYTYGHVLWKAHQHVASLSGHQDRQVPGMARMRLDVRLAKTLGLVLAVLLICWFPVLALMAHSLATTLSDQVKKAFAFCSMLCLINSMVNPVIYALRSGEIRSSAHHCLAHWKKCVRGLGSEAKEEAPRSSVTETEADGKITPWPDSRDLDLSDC
Measured Parameter: Ki (nM)

compound_string=CCCCCCC(C)(C)c1cc(OC(C)=O)c2c(c1)OC(C)(C)[C@@H]1CC=C(C(=O)O)C[C@@H]21 measured_parameter=Ki measured=51

---

biological target: Cannabinoid receptor 1 (Homo sapiens, UniProt P21554)
Sequence (P21554 whole entry): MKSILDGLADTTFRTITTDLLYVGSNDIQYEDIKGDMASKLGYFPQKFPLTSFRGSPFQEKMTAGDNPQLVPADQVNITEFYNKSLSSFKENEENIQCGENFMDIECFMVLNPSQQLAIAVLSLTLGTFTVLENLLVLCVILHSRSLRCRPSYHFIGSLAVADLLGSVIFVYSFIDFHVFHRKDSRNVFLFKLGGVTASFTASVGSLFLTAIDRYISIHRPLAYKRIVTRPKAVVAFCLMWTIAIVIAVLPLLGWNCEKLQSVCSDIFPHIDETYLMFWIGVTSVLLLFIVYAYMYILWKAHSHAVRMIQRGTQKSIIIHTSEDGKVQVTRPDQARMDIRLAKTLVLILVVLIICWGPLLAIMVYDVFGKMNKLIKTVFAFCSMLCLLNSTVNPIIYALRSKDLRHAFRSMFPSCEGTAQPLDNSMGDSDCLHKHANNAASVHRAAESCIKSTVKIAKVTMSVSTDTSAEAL
Measured Parameter: Ki (nM)

compound_string=CCCCCCC(C)(C)c1cc(OC(C)=O)c2c(c1)OC(C)(C)[C@@H]1CC=C(C(=O)O)C[C@@H]21 assayed_system="Cannabinoid receptor 1 (Homo sapiens, UniProt P21554)" measured=628
